test system: HSkMC; experiment: cytotoxicity call (relative viability < 0.9); conditions: 10 µM
Out of some 39,000 compounds screened, about 1,500 (3.8%) were called active. What follows is part of a selection rich in actives, with near analogues and random picks from the rest.
measured.metric: cytotoxicity call

{"columns": ["chemical.smiles", "system.under.test", "measured.metric", "result"],
 "data": [
  ["COc1ccc2c3c([nH]c2c1)[C@H](CO)N(C[C@]13CCN(CC1)S(=O)(=O)c1cn(cn1)C)C(=O)Nc1ccc(cc1)F", "HSkMC", "cytotoxicity call", "inactive"],
  ["COCC(=O)Nc1ccc2c(c1)C(=O)N(C)[C@H]1CC[C@@H](CC(=O)NCc3ccccc3Cl)O[C@@H]1CO2", "HSkMC", "cytotoxicity call", "inactive"],
  ["Oc1ccc(C2(c3ccccc3F)CCC(F)(F)CC2)cc1", "HSkMC", "cytotoxicity call", "inactive"],
  ["CC(C)NC(=O)Nc1ccc2c(c1)C(=O)N([C@@H](C)CO)C[C@H](C)[C@H](CN(C)S(=O)(=O)c1cccs1)O2", "HSkMC", "cytotoxicity call", "inactive"],
  ["COc1ccc(NC(=O)Nc2ccc3c(c2)C(=O)N([C@H](C)CO)C[C@H](C)[C@H](CN(C)S(=O)(=O)c2c(C)noc2C)OCCCC[C@@H](C)O3)cc1", "HSkMC", "cytotoxicity call", "inactive"],
  ["C=CCNC(=O)[C@H]1[C@@H]2C(=O)O[C@@H](c3ccccc3)[C@@H](c3ccccc3)N2[C@@H](c2ccccc2OCCO)[C@]12C(=O)N(C(=O)OCCOC)c1ccc(C#CC3(O)CCCCCC3)cc12", "HSkMC", "cytotoxicity call", "inactive"],
  ["O=C(O)CC(O)(CC(=O)O)C(=O)O.[LiH].[LiH].[LiH]", "HSkMC", "cytotoxicity call", "inactive"]
]}

###

tested on: HSkMC (human skeletal muscle cells); experiment: cytotoxicity call (relative viability < 0.9); conditions: 10 µM
Hit rate of the full screen: of about 39,000 compounds, about 1,500 (3.8%) were called active. The entries come from a sample that favours actives as a whole.
Labels: active, inactive

{"columns": ["molecule", "class.name"],
 "data": [
  ["Cc1ccc(S(=O)(=O)Nc2ccc3c(c2)CC(=O)N([C@@H](C)CO)C[C@@H](C)[C@H](CN(C)Cc2ccc(-c4ccccc4)cc2)O3)cc1", "inactive"],
  ["CCCCC(=O)c1ccc(O)cc1", "inactive"],
  ["CC(=O)O.Cc1c(-c2ccc(O)cc2)n(Cc2ccc(OCCN3CCCCCC3)cc2)c2ccc(O)cc12", "inactive"],
  ["O=C(C[C@H]1C[C@H]2c3cc(NS(=O)(=O)c4ccc(F)cc4)ccc3O[C@H]2[C@@H](CO)O1)NCc1ccccc1F", "inactive"],
  ["COc1ccc(NC(=O)N(C)C[C@@H]2Oc3c(NC(=O)c4cc(C)nn4C)cccc3C(=O)N([C@H](C)CO)C[C@H]2C)cc1", "inactive"],
  ["C[C@H](CO)N1C[C@H](C)[C@H](CN(C)Cc2ccc(F)cc2)Oc2cc(C#CC(C)(C)O)ccc2S1(=O)=O", "inactive"],
  ["C[C@@H]1CN([C@H](C)CO)C(=O)c2cc(NC(=O)Cc3cn(C)c4ccccc34)ccc2O[C@H]1CN(C)Cc1ccc(-c2ccccc2)cc1", "inactive"],
  ["Cc1noc(C)c1S(=O)(=O)Nc1cccc2c1O[C@@H](CN(C)Cc1ccc3c(c1)OCO3)[C@@H](C)CN([C@@H](C)CO)C2=O", "inactive"],
  ["Cc1ncc(CO)c(/C=N/O)c1O", "inactive"],
  ["C[C@H](CO)N1C[C@H](C)[C@@H](CN(C)S(=O)(=O)c2cccs2)Oc2c(NC(=O)c3cnccn3)cccc2C1=O", "inactive"],
  ["Cc1ccc([C@@H]2CC(=O)N[C@@H]2C(N)=O)cc1", "inactive"],
  ["CC(C)NC(=O)Nc1cccc2c1O[C@@H](CN(C)C(=O)Nc1ccc3c(c1)OCO3)[C@H](C)CN([C@H](C)CO)C2=O", "inactive"],
  ["COc1ccc(C#Cc2cnc3c(c2)C(=O)N([C@@H](C)CO)C[C@@H](C)[C@H](CN(C)C(=O)CN(C)C)O3)cc1", "inactive"],
  ["Cc1ccc(S(=O)(=O)Nc2ccc3c(c2)CC(=O)N([C@@H](C)CO)C[C@H](C)[C@H](CN(C)Cc2ccc(-c4ccccc4)cc2)O3)cc1", "active"],
  ["O=C(CCc1cn(CC(=O)N2CCC3(CC2)C(=O)NCN3c2ccccc2)nn1)NO", "inactive"],
  ["COc1ccc(-c2nc(N3CCOCC3)c3sc(CN(C)c4ncc(C(=O)NO)cn4)cc3n2)cn1", "active"],
  ["C[C@H](CO)N1C[C@H](C)[C@@H](CN(C)S(=O)(=O)c2ccc(Cl)cc2)Oc2ccc(N(C)C)cc2C1=O", "inactive"],
  ["O=C(O)CNC(=O)[C@H]1COc2ccccc2O1", "inactive"],
  ["CC1(C)C(=O)C=CC2(C)C1C=CC1(C)C2CCC2(C)C(c3ccoc3)OC(=O)C3OC312 (stereo not drawn)", "active"],
  ["CC(=O)NCCn1cccc1", "inactive"],
  ["CCNC(=O)C[C@@H]1C=C[C@H](NC(=O)C2CCOCC2)[C@@H](CO)O1", "inactive"],
  ["Cc1noc(C)c1S(=O)(=O)Nc1ccc2c(c1)CC(=O)N([C@H](C)CO)C[C@H](C)[C@H](CN(C)Cc1ccc3c(c1)OCO3)O2", "inactive"],
  ["CNc1ccc(-c2nc(N3CCOCC3)c3sc(CN(C)c4ncc(C(=O)NO)cn4)cc3n2)cn1", "active"],
  ["COC(=O)COc1nsnc1N1CCOCC1", "inactive"],
  ["C[C@@H]1CCCCO[C@@H](CN(C)C(=O)NC2CCCCC2)[C@H](C)CN([C@@H](C)CO)C(=O)c2cc(NC(=O)Cc3ccccc3)ccc2O1", "inactive"],
  ["C[C@@H]1CCCCO[C@H](CN(C)Cc2ccc(C(=O)O)cc2)[C@H](C)CN([C@H](C)CO)C(=O)c2cc(NC(=O)c3ccccc3)ccc2O1", "inactive"],
  ["COc1ccc(NC(=O)N(C)C[C@@H]2Oc3ccc(NS(=O)(=O)c4c(C)noc4C)cc3CC(=O)N([C@H](C)CO)C[C@H]2C)cc1", "inactive"],
  ["O=C(CN1CCOCC1)NCC[C@H]1CC[C@@H](NC(=O)Nc2ccccc2)[C@H](CO)O1", "inactive"],
  ["O=C(CCCCCCC(=O)Nc1ccc([C@H]2C[C@H](c3ccccc3)O[C@H](c3ccncc3)O2)cc1)NO", "inactive"],
  ["CN1C(=O)c2cc(NC(=O)C3CCOCC3)ccc2OC[C@@H]2O[C@@H](CC(=O)NCc3ccccc3F)CC[C@H]21", "inactive"],
  ["C[C@H](CO)N1C[C@H](C)[C@H](CN(C)Cc2ccc(Oc3ccccc3)cc2)Oc2ccc(NC(=O)Cc3cn(C)c4ccccc34)cc2C1=O", "active"],
  ["NC(=O)N1C(=O)[C@H]2[C@H](C1=O)[C@H]1C=C(CCCO)[C@@H]2[C@H](c2ccc(CN3CCCC3)cc2)N1Cc1sc2ccccc2c1Cl", "inactive"],
  ["CC1(C)C(=O)C=CC2(C)C1CC(=O)C1(C)C2CCC2(C)C(c3ccoc3)OC(=O)C3OC321 (stereo not drawn)", "inactive"]
]}
